testMethodNotes: oral bioavailability of encapsulated microparticulate (100 mg) enteric coated formulation (Example 3)
Set-up: species or system cynomolgus monkeys
conditionInfo: male, cynomolgus monkey, in vivo, po, 16 mg/kg, Bioavailability
quantityName: bioavailability
Returns: string containing the numeric result and its unit.

Q: // Input: "CN(C)c1cc(NC(=O)CNC(C)(C)C)c(O)c2c1C[C@H]1C[C@H]3[C@H](N(C)C)C(O)=C(C(N)=O)C(=O)[C@@]3(O)C(O)=C1C2=O" . Output its bioavailability only.
Result: 4.8%

----------
testMethodNotes: oral bioavailability of encapsulated microparticulate (100 mg) enteric coated formulation (Example 3)
Parameters: species or system cynomolgus monkeys
conditionInfo: male, cynomolgus monkey, in vivo, po, 16 mg/kg, absolute bioavailability of tigecycline in the blood
quantityName: bioavailability (%)
API: value field is a number in %; no unit string.

Q: // Input: CN(C)c1cc(NC(=O)CNC(C)(C)C)c(O)c2c1C[C@H]1C[C@H]3[C@H](N(C)C)C(O)=C(C(N)=O)C(=O)[C@@]3(O)C(O)=C1C2=O [Tigecycline] . Output its bioavailability only.
Result: 5

----------
testMethodNotes: pharmacokinetics after single oral (gavage) and intravenous dose in 0.9% saline (Example 2)
Set-up: species or system cynomolgus monkeys
conditionInfo: male, cynomolgus monkey, in vivo, iv, 5 mg/kg
quantityName: AUC(0-t) (ng·h/mL)
API: value field is a number in ng·h/mL; no unit string.

Q: // Input: CN(C)c1cc(NC(=O)CNC(C)(C)C)c(O)c2c1C[C@H]1C[C@H]3[C@H](N(C)C)C(O)=C(C(N)=O)C(=O)[C@@]3(O)C(O)=C1C2=O [Tigecycline] . Output its AUC(0-t) only.
Result: 18200

----------
testMethodNotes: pharmacokinetics after single oral (gavage) and intravenous dose in 0.9% saline (Example 2)
Set-up: species or system cynomolgus monkeys
conditionInfo: male, cynomolgus, cynomolgus monkey, in vivo, iv, 5 mg/kg, t1/2
quantityName: half-life (h)
API: value field is a number in h; no unit string.

Q: // Input: "CN(C)c1cc(NC(=O)CNC(C)(C)C)c(O)c2c1C[C@H]1C[C@H]3[C@H](N(C)C)C(O)=C(C(N)=O)C(=O)[C@@]3(O)C(O)=C1C2=O" . Output its half-life only.
Result: 12.8

----------
testMethodNotes: pharmacokinetics after single oral (gavage) and intravenous dose in 0.9% saline (Example 2)
Set-up: species or system cynomolgus monkeys
conditionInfo: male, cynomolgus monkey, in vivo, po, 15 mg/kg, Plasma Concentrations
quantityName: concentration at 1 hr (µg/mL)
API: value field is a number in µg/mL; no unit string.

Q: // Input: "CN(C)c1cc(NC(=O)CNC(C)(C)C)c(O)c2c1C[C@H]1C[C@H]3[C@H](N(C)C)C(O)=C(C(N)=O)C(=O)[C@@]3(O)C(O)=C1C2=O" . Output its concentration at 1 hr only.
Result: 0.114

----------
testMethodNotes: pharmacokinetics after single oral (gavage) and intravenous dose in 0.9% saline (Example 2)
Design: species or system cynomolgus monkeys
conditionInfo: male, cynomolgus, cynomolgus monkey, in vivo, iv, 5 mg/kg, Plasma Concentrations, Mean
Method: Four male cynomolgus monkeys were used in the study. […] The dosing volume was 10 mL/kg. By using 0.2 mL of monkey plasma sample, the assay limit of quantitation (LOQ) was 100 ng/mL and the curve range was between 100 and 6400 ng/mL. AUC0-4 was calculated by AUC0-t+Ct/λ, where AUC0-t was the AUC from time 0 to t, the last quantifiable time point and Ct was the last quantifiable concentration. […] Systemic clearance (CLT) after the iv dose was calculated using the formula of Dose/AUC0-4.
quantityName: concentration at 4 hr
Returns: string containing the numeric result and its unit.

Q: // Input: "CN(C)c1cc(NC(=O)CNC(C)(C)C)c(O)c2c1C[C@H]1C[C@H]3[C@H](N(C)C)C(O)=C(C(N)=O)C(=O)[C@@]3(O)C(O)=C1C2=O" . Output its concentration at 4 hr only.
Result: 697 ng/mL

----------
testMethodNotes: pharmacokinetics after single oral (gavage) and intravenous dose in 0.9% saline (Example 2)
Parameters: species or system cynomolgus monkeys
conditionInfo: male, cynomolgus monkey, in vivo, 15 mg/kg
quantityName: AUC (µg·h/mL)
API: value field is a number in µg·h/mL; no unit string.

Q: // Input: "CN(C)c1cc(NC(=O)CNC(C)(C)C)c(O)c2c1C[C@H]1C[C@H]3[C@H](N(C)C)C(O)=C(C(N)=O)C(=O)[C@@]3(O)C(O)=C1C2=O" . Output its AUC only.
Result: 18.3

----------
testMethodNotes: oral bioavailability of encapsulated microparticulate (100 mg) enteric coated formulation (Example 3)
Design: species or system cynomolgus monkeys
conditionInfo: male, cynomolgus monkey, in vivo, po, 100 mg, Cmax, Mean
quantityName: Cmax
Returns: string containing the numeric result and its unit.

Q: // Input: "CN(C)c1cc(NC(=O)CNC(C)(C)C)c(O)c2c1C[C@H]1C[C@H]3[C@H](N(C)C)C(O)=C(C(N)=O)C(=O)[C@@]3(O)C(O)=C1C2=O" . Output its Cmax only.
Result: 225 ng/mL

----------
testMethodNotes: pharmacokinetics after single oral (gavage) and intravenous dose in 0.9% saline (Example 2)
Parameters: species or system cynomolgus monkeys
conditionInfo: male, cynomolgus monkey, in vivo, po, 15 mg/kg, Plasma Concentrations
quantityName: concentration at 48 h

Q: // Input: "CN(C)c1cc(NC(=O)CNC(C)(C)C)c(O)c2c1C[C@H]1C[C@H]3[C@H](N(C)C)C(O)=C(C(N)=O)C(=O)[C@@]3(O)C(O)=C1C2=O" . Output its concentration at 48 h only.
Result: < 100 ng/mL

----------
testMethodNotes: pharmacokinetics after single oral (gavage) and intravenous dose in 0.9% saline (Example 2)
Set-up: species or system cynomolgus monkeys
conditionInfo: male, cynomolgus, cynomolgus monkey, in vivo, iv, 5 mg/kg, Plasma Concentrations
Procedure: Four male cynomolgus monkeys were used in the study. […] The dosing volume was 10 mL/kg. By using 0.2 mL of monkey plasma sample, the assay limit of quantitation (LOQ) was 100 ng/mL and the curve range was between 100 and 6400 ng/mL. AUC0-4 was calculated by AUC0-t+Ct/λ, where AUC0-t was the AUC from time 0 to t, the last quantifiable time point and Ct was the last quantifiable concentration. […] Systemic clearance (CLT) after the iv dose was calculated using the formula of Dose/AUC0-4.
quantityName: concentration at 2 hr

Q: // Input: "CN(C)c1cc(NC(=O)CNC(C)(C)C)c(O)c2c1C[C@H]1C[C@H]3[C@H](N(C)C)C(O)=C(C(N)=O)C(=O)[C@@]3(O)C(O)=C1C2=O" . Output its concentration at 2 hr only.
Result: 1010 ng/mL

----------
testMethodNotes: pharmacokinetics after single oral (gavage) and intravenous dose in 0.9% saline (Example 2)
Parameters: species or system cynomolgus monkeys
conditionInfo: male, cynomolgus, cynomolgus monkey, in vivo, iv, 5 mg/kg, Plasma Concentrations
quantityName: concentration at 4 hr (ng/mL)
API: value field is a number in ng/mL; no unit string.

Q: // Input: "CN(C)c1cc(NC(=O)CNC(C)(C)C)c(O)c2c1C[C@H]1C[C@H]3[C@H](N(C)C)C(O)=C(C(N)=O)C(=O)[C@@]3(O)C(O)=C1C2=O" . Output its concentration at 4 hr only.
Result: 588

----------
testMethodNotes: oral bioavailability of encapsulated microparticulate (100 mg) enteric coated formulation (Example 3)
Design: species or system cynomolgus monkeys
conditionInfo: male, cynomolgus monkey, in vivo, po, 16 mg/kg, AUC0/t or 0-∞
quantityName: AUC (ng·h/mL)
API: value field is a number in ng·h/mL; no unit string.

Q: // Input: "CN(C)c1cc(NC(=O)CNC(C)(C)C)c(O)c2c1C[C@H]1C[C@H]3[C@H](N(C)C)C(O)=C(C(N)=O)C(=O)[C@@]3(O)C(O)=C1C2=O" . Output its AUC only.
Result: 2830

----------
testMethodNotes: pharmacokinetics after single oral (gavage) and intravenous dose in 0.9% saline (Example 2)
Set-up: species or system cynomolgus monkeys
conditionInfo: male, cynomolgus monkey, in vivo, iv, 5 mg/kg, t1/2, Mean
Experimental: Four male cynomolgus monkeys were used in the study. […] The dosing volume was 10 mL/kg. By using 0.2 mL of monkey plasma sample, the assay limit of quantitation (LOQ) was 100 ng/mL and the curve range was between 100 and 6400 ng/mL. AUC0-4 was calculated by AUC0-t+Ct/λ, where AUC0-t was the AUC from time 0 to t, the last quantifiable time point and Ct was the last quantifiable concentration. […] Systemic clearance (CLT) after the iv dose was calculated using the formula of Dose/AUC0-4.
quantityName: half-life (h)
API: value field is a number in h; no unit string.

Q: // Input: "CN(C)c1cc(NC(=O)CNC(C)(C)C)c(O)c2c1C[C@H]1C[C@H]3[C@H](N(C)C)C(O)=C(C(N)=O)C(=O)[C@@]3(O)C(O)=C1C2=O" . Output its half-life only.
Result: 14.1
